- target: STE20-like serine/threonine-protein kinase (Homo sapiens) (UniProt Q9H2G2)
- Sequence (Q9H2G2 whole entry, looked up): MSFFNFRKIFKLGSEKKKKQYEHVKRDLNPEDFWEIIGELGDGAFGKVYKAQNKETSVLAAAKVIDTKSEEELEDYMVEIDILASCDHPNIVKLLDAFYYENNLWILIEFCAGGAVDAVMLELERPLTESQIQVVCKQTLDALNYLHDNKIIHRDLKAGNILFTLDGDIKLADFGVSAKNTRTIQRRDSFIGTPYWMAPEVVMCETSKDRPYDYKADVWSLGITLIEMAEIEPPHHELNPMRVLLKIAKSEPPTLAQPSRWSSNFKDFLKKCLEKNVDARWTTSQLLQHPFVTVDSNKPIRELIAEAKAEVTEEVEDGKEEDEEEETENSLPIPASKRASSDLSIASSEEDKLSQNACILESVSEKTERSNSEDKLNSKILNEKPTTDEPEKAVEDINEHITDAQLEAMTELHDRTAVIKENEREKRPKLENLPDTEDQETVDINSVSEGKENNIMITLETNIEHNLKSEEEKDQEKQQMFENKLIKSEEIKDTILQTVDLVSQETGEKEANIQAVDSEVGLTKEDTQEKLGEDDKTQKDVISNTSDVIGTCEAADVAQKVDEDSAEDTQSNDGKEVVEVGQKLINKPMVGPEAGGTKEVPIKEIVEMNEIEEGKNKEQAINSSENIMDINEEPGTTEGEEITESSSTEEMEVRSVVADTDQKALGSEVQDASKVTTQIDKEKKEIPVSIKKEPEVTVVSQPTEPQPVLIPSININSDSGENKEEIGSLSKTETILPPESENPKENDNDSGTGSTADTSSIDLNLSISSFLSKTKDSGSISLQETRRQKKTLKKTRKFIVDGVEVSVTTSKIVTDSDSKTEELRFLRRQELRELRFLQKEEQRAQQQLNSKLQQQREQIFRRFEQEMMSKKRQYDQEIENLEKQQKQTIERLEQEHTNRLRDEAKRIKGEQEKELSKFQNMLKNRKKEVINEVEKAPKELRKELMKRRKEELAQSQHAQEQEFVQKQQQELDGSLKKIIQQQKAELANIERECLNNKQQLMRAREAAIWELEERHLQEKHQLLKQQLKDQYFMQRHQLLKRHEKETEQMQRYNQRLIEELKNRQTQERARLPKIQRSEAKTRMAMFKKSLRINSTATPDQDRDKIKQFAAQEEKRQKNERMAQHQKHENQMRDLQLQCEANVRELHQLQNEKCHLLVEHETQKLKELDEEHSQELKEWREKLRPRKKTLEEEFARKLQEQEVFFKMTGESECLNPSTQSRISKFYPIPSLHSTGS
- assayDetails: SLK binders by thermal stabilization, biophysical, purified human kinase, DSF (AID 514)
- statedConditions: differential scanning fluorimetry Tm shift, at 10 µM, protein 2 µM, buffer 10 mM HEPES, pH 7.5, NaCl 150 mM, hits give high values
experimentalReadout: Tm shift

Challenge: Recorded Tm shift for `CC(C)[C@@H](CO)Nc1ccc2ncc(-c3cccc(Cl)c3)n2n1` with STE20-like serine/threonine-protein kinase (Homo sapiens) (UniProt Q9H2G2), please?
Response given: 4.7 C

Challenge: Recorded Tm shift for `COc1cc2ncnc(Nc3cccc(O)c3)c2cc1OC` with STE20-like serine/threonine-protein kinase (Homo sapiens) (UniProt Q9H2G2), please?
Response given: 3.2 C

Challenge: Recorded Tm shift for `COc1cc2ncnc(Nc3cccc(Br)c3)c2cc1OC` with STE20-like serine/threonine-protein kinase (Homo sapiens) (UniProt Q9H2G2), please?
Response given: 6.9 C

Challenge: Recorded Tm shift for `CN(C)CCCn1cc(C2=C(c3c[nH]c4ccccc34)C(=O)NC2=O)c2ccccc21` with STE20-like serine/threonine-protein kinase (Homo sapiens) (UniProt Q9H2G2), please?
Response given: 6.8 C

Challenge: Recorded Tm shift for `c1ccc(-c2cnc3ccc(NCc4ccco4)nn23)cc1` with STE20-like serine/threonine-protein kinase (Homo sapiens) (UniProt Q9H2G2), please?
Response given: 3.1 C

Challenge: Recorded Tm shift for `Cc1nc(N)sc1-c1ccnc(Nc2cccc(-n3oo3)c2)n1` with STE20-like serine/threonine-protein kinase (Homo sapiens) (UniProt Q9H2G2), please?
Response given: 3.6 C

Challenge: Recorded Tm shift for `CC(=O)c1cccc(-c2cnc3ccc(N[C@H](CO)C(C)C)nn23)c1` with STE20-like serine/threonine-protein kinase (Homo sapiens) (UniProt Q9H2G2), please?
Response given: 3.7 C

Challenge: Recorded Tm shift for `ON(O)c1ccc(-c2nc(-c3ccc(F)cc3)c(-c3ccncc3)[nH]2)cc1` with STE20-like serine/threonine-protein kinase (Homo sapiens) (UniProt Q9H2G2), please?
Response given: 5.4 C

Challenge: Recorded Tm shift for `CCN(CC)CCNC(=O)c1c(C)[nH]c(/C=C2\C(=O)Nc3ccc(Cl)cc32)c1C` with STE20-like serine/threonine-protein kinase (Homo sapiens) (UniProt Q9H2G2), please?
Response given: 7.5 C

Challenge: Recorded Tm shift for `O=C1NC(=O)C(c2cn(CCCn3ccnc3)c3ccccc23)=C1Nc1ccccc1` with STE20-like serine/threonine-protein kinase (Homo sapiens) (UniProt Q9H2G2), please?
Response given: 6.3 C

Challenge: Recorded Tm shift for `CC(C)[C@@H](CO)Nc1ccc2ncc(-c3cccc(F)c3)n2n1` with STE20-like serine/threonine-protein kinase (Homo sapiens) (UniProt Q9H2G2), please?
Response given: 4.2 C

Challenge: Recorded Tm shift for `CNC(=O)c1cc(Oc2ccc(NC(=O)Nc3ccc(C)c(C(F)(F)F)c3)cc2)ccn1` with STE20-like serine/threonine-protein kinase (Homo sapiens) (UniProt Q9H2G2), please?
Response given: 8 C

Challenge: Recorded Tm shift for CN(C)CC1CCn2c(c(C3=C(c4cn(C)c5ccccc45)C(=O)NC3=O)c3ccccc32)C1 (configuration not stated) with STE20-like serine/threonine-protein kinase (Homo sapiens) (UniProt Q9H2G2), please?
Response given: 4.2 C

Challenge: Recorded Tm shift for `Clc1ccc(-c2cnc3ccc(NC4CCOCC4)nn23)cc1` with STE20-like serine/threonine-protein kinase (Homo sapiens) (UniProt Q9H2G2), please?
Response given: 3.1 C

Challenge: Recorded Tm shift for `CC(C)[C@@H](CO)Nc1ccc2ncc(-c3cccc(O)c3)n2n1` with STE20-like serine/threonine-protein kinase (Homo sapiens) (UniProt Q9H2G2), please?
Response given: 4.5 C

Challenge: Recorded Tm shift for `CC(C)[C@@H](CO)Nc1ccc2ncc(-c3cccc(C(F)(F)F)c3)n2n1` with STE20-like serine/threonine-protein kinase (Homo sapiens) (UniProt Q9H2G2), please?
Response given: 4.8 C

Challenge: Recorded Tm shift for `NC(=O)Nc1sc(-c2ccccc2)cc1C(N)=O` with STE20-like serine/threonine-protein kinase (Homo sapiens) (UniProt Q9H2G2), please?
Response given: 3.5 C

Challenge: Recorded Tm shift for CCC(CO)Nc1ccc2ncc(-c3cccc(OC(F)(F)F)c3)n2n1 (configuration not stated) with STE20-like serine/threonine-protein kinase (Homo sapiens) (UniProt Q9H2G2), please?
Response given: 3.6 C

Challenge: Recorded Tm shift for `O=c1c(O)c(-c2ccc(O)c(O)c2)oc2cc(O)cc(O)c12` with STE20-like serine/threonine-protein kinase (Homo sapiens) (UniProt Q9H2G2), please?
Response given: 5.7 C

Challenge: Recorded Tm shift for `Oc1cccc(-c2cnc3ccc(NCC4CC4)nn23)c1` with STE20-like serine/threonine-protein kinase (Homo sapiens) (UniProt Q9H2G2), please?
Response given: 3.2 C

Challenge: Recorded Tm shift for `N=C(N)SCCCn1cc(C2=C(c3c[nH]c4ccccc34)C(=O)NC2=O)c2ccccc21` with STE20-like serine/threonine-protein kinase (Homo sapiens) (UniProt Q9H2G2), please?
Response given: 10.6 C

Challenge: Recorded Tm shift for `COc1cc2ncnc(Nc3ccc(NC(=O)c4ccccc4)cc3)c2cc1OC` with STE20-like serine/threonine-protein kinase (Homo sapiens) (UniProt Q9H2G2), please?
Response given: 5.5 C
